Give IC50 for every item shown.
Target: DGKζ (Homo sapiens, UniProt Q13574)
Construct: His (N); TEV cleavage site (N)
Sequence (Q13574 1-929 isoform Q13574-4): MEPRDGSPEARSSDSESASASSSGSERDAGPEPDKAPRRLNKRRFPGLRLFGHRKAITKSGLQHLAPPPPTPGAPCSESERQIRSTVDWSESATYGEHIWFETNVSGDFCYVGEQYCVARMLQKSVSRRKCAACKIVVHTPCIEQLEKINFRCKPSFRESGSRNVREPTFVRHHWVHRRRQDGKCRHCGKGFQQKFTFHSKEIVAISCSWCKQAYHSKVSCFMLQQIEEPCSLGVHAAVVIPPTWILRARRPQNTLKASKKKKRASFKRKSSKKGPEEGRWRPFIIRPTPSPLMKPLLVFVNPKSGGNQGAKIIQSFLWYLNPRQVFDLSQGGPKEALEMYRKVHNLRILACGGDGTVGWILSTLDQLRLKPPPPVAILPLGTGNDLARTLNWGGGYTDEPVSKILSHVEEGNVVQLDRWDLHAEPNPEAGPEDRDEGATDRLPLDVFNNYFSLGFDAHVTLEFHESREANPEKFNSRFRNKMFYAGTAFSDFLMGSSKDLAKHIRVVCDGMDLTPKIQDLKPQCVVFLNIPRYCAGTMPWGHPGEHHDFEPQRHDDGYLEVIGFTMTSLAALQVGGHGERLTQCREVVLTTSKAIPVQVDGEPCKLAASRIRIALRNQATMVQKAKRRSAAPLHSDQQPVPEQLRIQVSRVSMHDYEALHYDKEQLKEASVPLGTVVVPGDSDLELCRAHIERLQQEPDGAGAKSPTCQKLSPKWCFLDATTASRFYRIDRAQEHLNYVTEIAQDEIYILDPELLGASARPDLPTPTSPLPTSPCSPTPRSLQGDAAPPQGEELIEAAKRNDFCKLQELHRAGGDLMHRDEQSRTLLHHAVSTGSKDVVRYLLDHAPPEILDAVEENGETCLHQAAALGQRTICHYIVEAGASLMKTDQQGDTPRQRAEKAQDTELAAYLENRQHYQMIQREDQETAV
Assay: Biochemical DGK IC50 assay, DGKζ ADP-Glo assay
Conditions: full length DGKζ 0.5 nM, ATP 140 μM, DAG 80 μM
Answers are plain numbers, in µM.

Answered examples (4):
molecule: CC[C@H]1CN(C(C)c2cccc(C)c2C(F)(F)F)[C@H](CC)CN1c1cc(=O)n(C)c2cn(CC#N)nc12 (single isomer, unassigned) [Compound A110a]
subjectOfTest: DGKζ (Homo sapiens, UniProt Q13574)
IC50, µM: 0.151
--
molecule: CC[C@@H]1CN(c2cc(=O)[nH]c3cn(CC#N)nc23)[C@@H](C)CN1C(C)c1ccc2nccnc2c1 (single isomer, unassigned) [Compound A177b]
subjectOfTest: DGKζ (Homo sapiens, UniProt Q13574)
IC50, µM: 3.6
--
molecule: CC[C@H]1CN(C(C)c2nc(Cl)cn2CC)[C@H](CC)CN1c1cc(=O)n(C)c2cn(CC#N)nc12 (single isomer, unassigned) [Compound A191b]
subjectOfTest: DGKζ (Homo sapiens, UniProt Q13574)
IC50, µM: 1.18
--
molecule: CC[C@H]1CN(C(C)c2ccc(C3CC3)cc2F)[C@H](CC)CN1c1cc(=O)n(C)c2cn(CC#N)nc12 (single isomer, unassigned) [Compound A72a]
subjectOfTest: DGKζ (Homo sapiens, UniProt Q13574)
IC50, µM: 0.85

In the following, a different molecule is considered.
Quick one: give measured IC50 for CC[C@H]1CN(C(C)c2ccc3nc(OC)cnc3c2)[C@H](CC)CN1c1cc(=O)n(C)c2cn(CC#N)nc12 (single isomer, unassigned) [Compound A281b] 1.12
